molecular target: Peroxisome proliferator-activated receptor gamma (Homo sapiens) (UniProt P37231); assay: compounds enhancing SRC-2 coactivator binding to PPARgamma – biochemical, HTS, primary screen (AID 1032); details: PPARgamma LBD-SRC-2 recruitment, at 8 µM, active compounds read high;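 also: 0% = vehicle and 100% = reference agonist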
Sequence (P37231 whole entry, looked up, the tested form may be a part): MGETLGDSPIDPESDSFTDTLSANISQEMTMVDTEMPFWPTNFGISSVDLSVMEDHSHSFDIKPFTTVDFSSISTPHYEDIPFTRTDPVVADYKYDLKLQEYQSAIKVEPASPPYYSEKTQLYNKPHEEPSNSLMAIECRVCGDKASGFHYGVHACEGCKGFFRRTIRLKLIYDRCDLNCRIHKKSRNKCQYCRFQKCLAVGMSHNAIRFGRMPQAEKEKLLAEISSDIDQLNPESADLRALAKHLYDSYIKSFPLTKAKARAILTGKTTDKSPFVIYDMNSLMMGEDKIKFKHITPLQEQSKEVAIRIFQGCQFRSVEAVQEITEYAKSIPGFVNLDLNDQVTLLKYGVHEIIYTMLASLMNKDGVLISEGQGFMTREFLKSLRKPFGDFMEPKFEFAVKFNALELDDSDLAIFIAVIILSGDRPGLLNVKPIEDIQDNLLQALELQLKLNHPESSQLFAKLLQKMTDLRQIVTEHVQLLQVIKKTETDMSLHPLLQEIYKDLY
In all, about 200,000 compounds went through this assay and about 670 (0.34%) were called active. The full list was thinned out, with actives kept by preference.

COMPOUND	activation (%)
COc1cccc(-n2c(=O)c3c(C)c(C(=O)N(C)C)sc3n(CC(=O)NCCc3ccc(OC)c(OC)c3)c2=O)c1	9.15
CN(C)c1ccc(/C=N/N(Cc2ccccc2)c2ccccc2)cc1	11.9
S=c1[nH]cc(-c2ccc(Cl)cc2)n1-c1ccccc1	0.94
Cc1nc(-c2ccccc2)sc1-c1nc(-c2ccccc2)ncc1S(=O)(=O)c1ccccc1	30
Cc1ccc(-c2nc(C)sc2CC(=O)O)cc1	-0.57
O=C(CNC(=O)COc1ccccc1)NCCc1ccccn1	-3
CC(C)CN1CCNC(=O)C1CC(=O)N(C)CC1CCOCC1 (configuration not stated)	-4.08
CC(=O)N/N=C(\C)c1ccc(Br)cc1Br	-4.44
Cn1c(CO)cnc1SCc1ccccc1	5.35
O=C(NNc1ccccc1Cl)C(O)(c1cccc(C(F)(F)F)c1)c1cccc(C(F)(F)F)c1	17.2
COc1ccc(OCc2n[nH]c(=S)n2N)cc1	4.69
COC(C(=O)Nc1ccc(S(=O)(=O)Nc2ccc(C)c(C)c2)cc1)c1ccccc1 (configuration not stated)	-10.9
Cc1ccccc1Cn1nc(C)c(NC(=O)C(F)(F)F)c1C	-0.15
Cc1nc2ccccc2n1CC(=O)N/N=C/c1cccnc1	2.27
Cc1ccc(NC(=S)N(CCCN2CCC(C)CC2)Cc2ccco2)cc1	-0.03
CN1CCN(C(c2cc3cc4c(cc3[nH]c2=O)OCCO4)c2nnnn2C2CCCC2)CC1 (configuration not stated)	4.65
Cn1c(N)cc(-c2ccc(F)cc2)c(C#N)c1=O	1.85
Cn1c(-c2sccc2OCc2cccc(C(F)(F)F)c2)n[nH]c1=S	3.72
CC(=O)c1ccc(S(=O)(=O)N2CCN(c3nc4c(C)c(C)ccc4cc3C#N)CC2)cc1	32
O=C(CSc1cccc2cccnc12)N/N=C/c1cccnc1	27.4
COc1ccc(/C(O)=C2/C(=O)C(=O)N(c3nc(C)c(C)s3)C2c2ccco2)cc1 (configuration not stated)	22.7
CCN(/N=C/c1ccccc1)c1cc(=O)n(C)c(=O)[nH]1	-3.6
CC1=NNC(=O)C1CCC(=O)N/N=C\c1ccc(Cl)c(Cl)c1 (configuration not stated)	6.93
Cc1nc2ccccc2cc1OCc1ccc(F)cc1	4.89
CCOC(=O)c1ccc(NC(=S)N2CCCC2)cc1	-1
CCCC/S(C)=N/S(=O)(=O)c1ccc(C)cc1 (configuration not stated)	4.28
COc1ccccc1C1/C(=C(/O)c2ccc(C)cc2)C(=O)C(=O)N1Cc1ccco1 (configuration not stated)	-3.88
CCOC(=O)N/N=C/c1cccnc1	3.1
COc1cc(/C=C(/NC(=O)c2ccc(Cl)cc2Cl)C(=O)O)cc(OC)c1OC	11.2
COC(=O)CSc1nccc(-c2cccs2)n1	0.01
O=C(CS(=O)(=O)c1ccccc1)Nc1ccc(S(=O)(=O)Nc2ccccn2)cc1	-6.08
Cn1c(-c2sc3cc(C(F)(F)F)cnc3c2-c2ccccc2)n[nH]c1=S	49.1
